System: HeLa cells
EXPERIMENT: Cell cycle assay in HeLa cells
Assay type: cell-based, human
CONDITION: HeLa cells, 25 nM, 48 hours; percentage of cells in phase, average of replicates
In the oligonucleotide strings, read from the 5' end, every base follows the letter of its sugar. An asterisk marks phosphorothioate; unmarked linkages are phosphodiester. Other units and linkages are bracketed, terminal groups are in braces. A string of capitals states the bases alone. e = 2'-O-(2-methoxyethyl) (MOE); [5mC] = 5-methylcytosine; d = 2'-deoxy (DNA)
MEASURED_QUANTITY: % cells in cell cycle phase: aneuploid (%)
One number for each entry, in %.

SUBSTANCE | UNIT_ANNOTATION | ASSAY_RESULT
327902 (antisense eG*eG*e[5mC]*eT*eG*eT*e[5mC]*eA*eA*eT*eT*e[5mC]*eA*eT*eA*eG*eG*eT*e[5mC]*eA*eG) [compound 327902] | % | 13
328383 (eA*eG*eA*eG*eG*dG*dG*dA*dG*dA*d[5mC]*dG*dA*dG*dA*eG*e[5mC]*eA*e[5mC]*eT) [compound 328383] | % | 12
327905 (antisense e[5mC]*eA*eG*eA*e[5mC]*eT*e[5mC]*e[5mC]*eG*eG*eT*eG*eG*eA*eA*eT*eG*eA*eA*eG*eG*eA) [compound 327905] | % | 12

# context switch: different substance, same % cells in cell cycle phase: aneuploid
Quick check: % cells in cell cycle phase: aneuploid of 328403 (antisense eA*eG*eG*e[5mC]*e[5mC]*dT*dA*dT*dT*d[5mC]*d[5mC]*dT*dG*dT*dA*eG*e[5mC]*eA*eA*eA) [compound 328403] ?
13

====

System: HeLa cells
EXPERIMENT: Cell cycle assay in HeLa cells
Format: cell-based, human
CONDITION: HeLa cells, 150 nM oligomeric compound, 48 hours after treatment; relative to untreated control (UTC=100)
In the oligonucleotide strings, read from the 5' end, every base follows the letter of its sugar. An asterisk marks phosphorothioate; unmarked linkages are phosphodiester. Other units and linkages are bracketed, terminal groups are in braces. A string of capitals states the bases alone. e = 2'-O-(2-methoxyethyl) (MOE); [5mC] = 5-methylcytosine; d = 2'-deoxy (DNA)
Classification field: enter t for % cells in cell cycle phase: subG1 values not below 200%, f for values below it.

Reference set, count: 3
SUBSTANCE | CLASSIFICATION
338741 (antisense GCTTCACAATTAGACCATCC; all 2'-MOE, all phosphorothioate, methylation of C not given here) [compound 338741] | f
328727 (antisense e[5mC]*eT*eG*e[5mC]*eT*d[5mC]*d[5mC]*dA*dG*dA*dG*d[5mC]*d[5mC]*d[5mC]*dG*eA*eG*eT*e[5mC]*eG) [compound 328727] | t
338833 (antisense TCGTGCACCTGAGGAGTCTG; all 2'-MOE, all phosphorothioate, methylation of C not given here) [compound 338833] | t

API: above_or_equal(metric=% cells in cell cycle phase: subG1, cutoff=200%) for item 328396 (antisense e[5mC]*eT*eG*eG*eT*dT*dG*dG*dG*dT*dA*dT*dG*dA*dG*eA*e[5mC]*eA*eG*eA) [compound 328396]
f

====

Can you tell me % cells in cell cycle phase: G1 for the items I'm about to list?
Test system: HeLa cells
EXPERIMENT: Cell cycle assay in HeLa cells
Type: cell-based, human
CONDITION: HeLa cells, 100 nM, 48 hours; percentage of cells in phase, average of replicates
In the oligonucleotide strings, read from the 5' end, every base follows the letter of its sugar. An asterisk marks phosphorothioate; unmarked linkages are phosphodiester. Other units and linkages are bracketed, terminal groups are in braces. A string of capitals states the bases alone. e = 2'-O-(2-methoxyethyl) (MOE); [5mC] = 5-methylcytosine; d = 2'-deoxy (DNA)
Give bare numbers, in %.

SUBSTANCE | ASSAY_RESULT
328403 (antisense eA*eG*eG*e[5mC]*e[5mC]*dT*dA*dT*dT*d[5mC]*d[5mC]*dT*dG*dT*dA*eG*e[5mC]*eA*eA*eA) [compound 328403] | 48
327905 (antisense e[5mC]*eA*eG*eA*e[5mC]*eT*e[5mC]*e[5mC]*eG*eG*eT*eG*eG*eA*eA*eT*eG*eA*eA*eG*eG*eA) [compound 327905] | 46
328383 (eA*eG*eA*eG*eG*dG*dG*dA*dG*dA*d[5mC]*dG*dA*dG*dA*eG*e[5mC]*eA*e[5mC]*eT) [compound 328383] | 36

# ---- query substance ----
What value of % cells in cell cycle phase: G1 has been recorded for this entry: 327902 (antisense eG*eG*e[5mC]*eT*eG*eT*e[5mC]*eA*eA*eT*eT*e[5mC]*eA*eT*eA*eG*eG*eT*e[5mC]*eA*eG) [compound 327902]
43

====

Would you kindly list HSL mRNA for each of these substances?
Tested on: HSL
EXPERIMENT: HSL mRNA expression in adipocytes (real-time PCR)
Type: cell-based, human
CONDITION: differentiating adipocytes transfected with oligomeric compound; Table 75
In the oligonucleotide strings, read from the 5' end, every base follows the letter of its sugar. An asterisk marks phosphorothioate; unmarked linkages are phosphodiester. Other units and linkages are bracketed, terminal groups are in braces. A string of capitals states the bases alone. e = 2'-O-(2-methoxyethyl) (MOE); [5mC] = 5-methylcytosine

Worked examples follow.
SUBSTANCE | HSL mRNA
344277 (antisense AAUACAUACUUCUUUACAUUCCA; all 2'-MOE, all phosphorothioate, methylation of C and T or U not given here) [compound 344277] | 57 percentage of untreated control (UTC)
328095 (antisense eT*e[5mC]*eA*e[5mC]*eA*eG*eA*eG*eA*eA*eA*eA*e[5mC]*eA*eA*e[5mC]*eT*eG*eG*eT*eA) [compound 328095] | 83 percentage of untreated control (UTC)
327972 (antisense eA*e[5mC]*eT*e[5mC]*eA*e[5mC]*e[5mC]*eG*eA*e[5mC]*eA*eG*eG*eT*eT*eG*eA*eA*eT*eG*eT*eT) [compound 327972] | 70 percentage of untreated control (UTC)
344269 (antisense UAACCGAUUUCAAAUGGUGCUA; all 2'-MOE, all phosphorothioate, methylation of C and T or U not given here) [compound 344269] | 35 percentage of untreated control (UTC)

Please find the next substance below.
API: value(readout=HSL mRNA, system=HSL) for record 348124 (CACAAAUUCGGUUCUACAGGGUA; anti-miR; all 2'-MOE, all phosphorothioate, methylation of C and T or U not given here) [compound 348124]
43 percentage of untreated control (UTC)

====

Test system: IL-6 mRNA
EXPERIMENT: IL-6 mRNA in LPS-activated primary murine macrophages
Type: cell-based, mouse
CONDITION: 300 nM, +IFN, average of 3 treatments
In the oligonucleotide strings, read from the 5' end, every base follows the letter of its sugar. An asterisk marks phosphorothioate; unmarked linkages are phosphodiester. Other units and linkages are bracketed, terminal groups are in braces. A string of capitals states the bases alone. e = 2'-O-(2-methoxyethyl) (MOE); [5mC] = 5-methylcytosine
Answer each item with its documented IL-6 mRNA expression, % UTC.
Numbers only, in % UTC.

SUBSTANCE | UNIT_ANNOTATION | IL-6 mRNA expression, % UTC
342683 (antisense CCTTCCCTGAAGGTTCCTCCTT; scrambled control, further chemistry not given here) [compound 342683] | % UTC | 110
289606 (antisense CCUUCCCUGAAGGUUCCUCC; all 2'-MOE, all C 5-methyl, all phosphorothioate, T or U not given here) [compound 289606] | % UTC | 70

Alright, here's another substance for you.
Name the reported IL-6 mRNA expression, % UTC value associated with the substance 327941 (antisense eA*eA*e[5mC]*e[5mC]*e[5mC]*eA*e[5mC]*e[5mC]*eG*eA*e[5mC]*eA*eG*e[5mC]*eA*eA*eT*eG*eA*eA*eT*eG*eT*eT) [compound 327941]
197

====

Tested on: HeLa cells
EXPERIMENT: Cell cycle assay in HeLa cells
Type: cell-based, human
CONDITION: HeLa cells, 150 nM oligomeric compound, 48 hours after treatment; relative to untreated control (UTC=100)
In the oligonucleotide strings, read from the 5' end, every base follows the letter of its sugar. An asterisk marks phosphorothioate; unmarked linkages are phosphodiester. Other units and linkages are bracketed, terminal groups are in braces. A string of capitals states the bases alone. e = 2'-O-(2-methoxyethyl) (MOE); [5mC] = 5-methylcytosine; d = 2'-deoxy (DNA)
MEASURED_QUANTITY: % cells in cell cycle phase: G2/M (%)
Give bare numbers, in %.

Example substances with recorded % cells in cell cycle phase: G2/M:
SUBSTANCE | UNIT_ANNOTATION | ASSAY_RESULT
328339 (eG*e[5mC]*eA*eG*e[5mC]*dG*d[5mC]*dA*dG*d[5mC]*dT*dG*dG*dT*d[5mC]*eT*e[5mC]*e[5mC]*e[5mC]*e[5mC]) [compound 328339] | % | 123
327944 (antisense eA*eA*eA*eG*eT*eG*eT*e[5mC]*eA*eG*eA*eT*eA*e[5mC]*eG*eG*eT*eG*eT*eG*eG) [compound 327944] | % | 144
327949 (antisense e[5mC]*eA*e[5mC]*eA*eA*eA*eT*eT*e[5mC]*eG*eG*eA*eT*e[5mC]*eT*eA*e[5mC]*eA*eG*eG*eG*eT*eA) [compound 327949] | % | 138
327946 (antisense eA*eG*eG*e[5mC]*eG*eA*eA*eG*eG*eA*eT*eG*eA*e[5mC]*eA*eA*eA*eG*eG*eG*eA*eA) [compound 327946] | % | 129
327907 (antisense eA*eG*e[5mC]*e[5mC]*eT*eA*eT*e[5mC]*e[5mC]*eT*eG*eG*eA*eT*eT*eA*e[5mC]*eT*eT*eG*eA*eA) [compound 327907] | % | 115
328419 (antisense eT*eG*eT*eT*eG*d[5mC]*d[5mC]*dT*dA*dA*d[5mC]*dG*dA*dA*d[5mC]*eA*e[5mC]*eA*eG*eA) [compound 328419] | % | 107
327896 (antisense eA*e[5mC]*eA*eG*eT*eT*e[5mC]*eT*eT*e[5mC]*eA*eA*e[5mC]*eT*eG*eG*e[5mC]*eA*eG*e[5mC]*eT*eT) [compound 327896] | % | 194
327908 (antisense e[5mC]*eA*eA*eT*eG*e[5mC]*eA*eA*e[5mC]*eT*eA*e[5mC]*eA*eA*eT*eG*e[5mC]*eA*e[5mC]) [compound 327908] | % | 105

Record % cells in cell cycle phase: G2/M per entry; entries follow.
1. 328676 (eA*e[5mC]*e[5mC]*eT*e[5mC]*d[5mC]*d[5mC]*dA*dG*d[5mC]*d[5mC]*dA*dA*dT*d[5mC]*e[5mC]*eA*eT*eG*eT; antisense) [compound 328676]
2. 328674 (eT*eG*e[5mC]*e[5mC]*e[5mC]*dT*dG*d[5mC]*dT*d[5mC]*dA*dG*dA*dG*d[5mC]*e[5mC]*e[5mC]*eT*eA*eG; antisense) [compound 328674]
3. 327889 (antisense eG*eT*eG*eG*eT*eA*eA*eT*e[5mC]*e[5mC]*e[5mC]*eT*eG*eG*e[5mC]*eA*eA*eT*eG*eT*eG*eA*eT) [compound 327889]
4. 327901 (antisense eT*eG*eA*eG*e[5mC]*eT*eA*e[5mC]*eA*eG*eT*eG*e[5mC]*eT*eT*e[5mC]*eA*eT*e[5mC]*eT*e[5mC]*eA) [compound 327901]
5. 328647 (eG*eG*eA*eG*eT*dA*dG*dA*dT*dG*dA*dT*dG*dG*dT*eT*eA*eG*e[5mC]*e[5mC]; antisense) [compound 328647]

1: 118; 2: 109; 3: 130; 4: 103; 5: 118
